# System under test: human mAChR M1 (Homo sapiens, UniProt P11229)
# Construct: host or cells: CHO-K1 cells (ATCC), stably transfected using Lipofectamine2000
# Measurement description: mAChR M1 cell-based functional assay (calcium mobilization), PAM activity: increase in the EC20 acetylcholine response
# Condition notes: CHO-K1 cells expressing hM1; potentiation of EC20 acetylcholine response
Metric name: EC50

List EC50 for every entry below, keeping the order given.
1. COc1cc(-c2cc(F)c(Cn3cc(C(=O)N[C@H]4CCOC[C@@H]4O)c4ncccc4c3=O)c(F)c2)ccc1Cl
2. Cn1cc2c(-c3cc(F)c(Cn4cc(C(=O)N[C@H]5CCOC[C@@H]5O)c5occc5c4=O)c(F)c3)cccc2n1
3. Cn1cc(-c2ccc(Cn3cc(C(=O)N[C@H]4CCCC[C@@H]4O)c4ncccc4c3=O)c(F)c2)cn1
4. Cc1cn2c(=O)n(Cc3ccc(-n4cccn4)cc3)cc(C(=O)N[C@H]3CCOC[C@@H]3O)c2n1
5. Cn1ccc(-c2ccc(Cn3cc(C(=O)N[C@H]4CCOC[C@@H]4O)c4nccn4c3=O)c(F)c2)n1
6. O=C(N[C@H]1CCCC[C@@H]1O)c1cn(Cc2ccc(-c3cscn3)cc2)c(=O)c2cccnc12
7. O=C(N[C@H]1CCC[C@@H]1O)c1cn(Cc2ccc(-n3cccn3)cc2)c(=O)c2cccnc12
8. Cn1ccc(-c2ccc(Cn3cc(C(=O)N[C@H]4CCCC[C@@H]4O)c4sccc4c3=O)c(F)c2)n1

≥ 10 µM
0.28 µM
0.29 µM
≥ 10 µM
0.13 µM
0.42 µM
7.78 µM
> 10 µM

###

# System under test: human mAChR M1 (Homo sapiens, UniProt P11229)
# Construct: host or cells: CHO-K1 cells (ATCC), stably transfected using Lipofectamine2000
# Measurement description: mAChR M1 cell-based functional assay (calcium mobilization), PAM activity: increase in the EC20 acetylcholine response
# Condition notes: CHO-K1 cells expressing hM1; potentiation of EC20 acetylcholine response
Kindly supply the reported pEC50 values for the records listed here.
Give bare numbers, as −log10 of the molar value.

Cc1cn2c(=O)n(Cc3ccc(-c4ccn(C)n4)cc3F)cc(C(=O)N[C@H]3CCOC[C@@H]3O)c2n1 :: 5.03
Cn1nccc1-c1cc(F)c(Cn2cc(C(=O)N[C@H]3CCOC[C@@H]3O)c3ncccc3c2=O)c(F)c1 :: 5.96

Now for another entry.
Name the recorded pEC50 for Cc1cc(-c2ccc(Cn3cc(C(=O)N[C@H]4CCOC[C@@H]4O)c4ncccc4c3=O)c(F)c2)ccn1 .
6.31

###

# System under test: human mAChR M1 (Homo sapiens, UniProt P11229)
# Construct: host or cells: CHO-K1 cells (ATCC), stably transfected using Lipofectamine2000
# Sequence (P11229 1-460): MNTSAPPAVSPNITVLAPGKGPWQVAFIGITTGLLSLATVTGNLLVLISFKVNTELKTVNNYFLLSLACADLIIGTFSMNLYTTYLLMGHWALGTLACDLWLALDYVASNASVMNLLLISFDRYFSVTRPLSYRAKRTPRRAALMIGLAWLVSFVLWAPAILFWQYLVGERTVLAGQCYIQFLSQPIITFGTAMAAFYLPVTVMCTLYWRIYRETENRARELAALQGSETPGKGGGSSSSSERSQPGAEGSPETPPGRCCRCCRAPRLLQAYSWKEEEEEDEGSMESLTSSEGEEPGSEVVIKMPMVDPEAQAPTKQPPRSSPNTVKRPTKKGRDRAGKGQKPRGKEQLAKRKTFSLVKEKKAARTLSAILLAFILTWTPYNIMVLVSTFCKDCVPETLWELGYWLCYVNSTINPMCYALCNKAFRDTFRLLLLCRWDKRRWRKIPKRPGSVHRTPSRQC
# Measurement description: mAChR M1 cell-based functional assay (calcium mobilization), PAM activity: increase in the EC20 acetylcholine response
# Condition notes: CHO-K1 cells expressing hM1; potentiation of EC20 acetylcholine response
Kindly supply the reported Emax values for the records listed here.
Write the numeric value and follow it with the unit.

Below, 3 compounds whose answers are already recorded.
Cn1cc(-c2ccc(Cn3cc(C(=O)N[C@H]4CCOC[C@@H]4O)c4ncccc4c3=O)c(F)c2)cn1 [Compound A6] :: 89%
Cn1ccc(-c2ccc(Cn3cc(C(=O)N[C@H]4CCCCC[C@@H]4O)c4nccnc4c3=O)c(F)c2)n1 [Compound A65] :: 63%
O=C(N[C@H]1CCCC[C@@H]1O)c1cn(Cc2ccc(-n3cccn3)cc2)c(=O)n2ccnc12 [Compound B13] :: 70%

Now for another entry.
Name the recorded Emax for Cn1cc2c(-c3cc(F)c(Cn4cc(C(=O)NC5(CO)CCOC5)c5nccnc5c4=O)c(F)c3)cccc2n1 (stereo not shown) [Compound A72] .
32%
